Below, each entry is listed alongside its reported IC50.
target: CDK8 (CDK8/CycC) (Homo sapiens); construct: purchased Invitrogen PV4402; assay: FRET based Lanthascreen binding competition assay; settings: 5 nM CDK8/CycC, 10 nM Alexa647-Tracer, 1% DMSO, 60 min at RT; read-out: IC50 CDK8 binding

> print(dat)
                                   compound  measure        result
1  O=C(c1ccc2cnccc2c1)N1CCC[C@H]1c1ccccc1 [Compound 122]     IC50  10 to 100 nM
2  Cn1cc(-c2ccc(-c3cncc4ccc(N5CCCC5=O)cc34)cc2)cn1 [Compound 128]     IC50  10 to 100 nM
3  COC1CN(C(=O)c2ccc3cncc(-c4ccc(-c5cnn(CC(C)(C)O)c5)cc4)c3n2)C1 [Compound 31]     IC50       < 10 nM
4  CN1c2ccc(-c3cncc4ccccc34)cc2CS1(=O)=O [Compound 100]     IC50       < 10 nM

Now look at this entry.
Quickly give me recorded IC50 for CNCc1ccc2cncc(-c3ccc4c(c3)CS(=O)(=O)N4C)c2n1 [Compound 53]
10 to 100 nM

* * *

biological target: CDK8 (CDK8/CycC) (Homo sapiens); construct: purchased Invitrogen PV4402; assay: FRET based Lanthascreen binding competition assay; conditions: 5 nM CDK8/CycC, 10 nM Alexa647-Tracer, 1% DMSO, 60 min at RT; read-out: IC50 CDK8 binding
Below, each entry is listed alongside its reported IC50.

Here's what some known entries look like.
> print(dat)
                                        smi        result
1  Cc1cncc2ccc(C(=O)N3CCC[C@H]3c3ccc(Cl)cc3)nc12       < 10 nM
2  CN1c2ccc(-c3cncc4ccc(-c5nccn5C)cc34)cc2CS1(=O)=O       < 10 nM
3  Cn1cc(-c2ccc(-c3cncc4ccc(NS(=O)(=O)N5CCC5)cc34)cc2)cn1       < 10 nM
4      Cn1ncc2cc(-c3cncc4ccc(C#N)cc34)ccc21  10 to 100 nM
5  Cn1cc(-c2ccc(-c3cncc4ccc(NS(=O)(=O)C5(C)CC5)cc34)cc2)cn1       < 10 nM
6    O=C(c1ccc2cnccc2n1)N1CCC[C@H]1c1ccccc1  10 to 100 nM
7  Cn1cc(-c2ccc(-c3cncc4ccc(NS(=O)(=O)c5ccccc5)cc34)cc2)cn1       < 10 nM

Now look at this entry.
Quickly give me recorded IC50 for O=C(c1ccc2cncc(-c3ccc4c(c3)CS(=O)(=O)N4)c2n1)N1CCC(F)(F)C1
< 10 nM

* * *

molecular target: CDK8 (CDK8/CycC) (Homo sapiens, UniProt P49336); construct: purchased Invitrogen PV4402; experiment: FRET based Lanthascreen binding competition assay; conditions: 5 nM CDK8/CycC, 10 nM Alexa647-Tracer, 1% DMSO, 60 min at RT; read-out: IC50 CDK8 binding
Sequence (P49336 whole entry): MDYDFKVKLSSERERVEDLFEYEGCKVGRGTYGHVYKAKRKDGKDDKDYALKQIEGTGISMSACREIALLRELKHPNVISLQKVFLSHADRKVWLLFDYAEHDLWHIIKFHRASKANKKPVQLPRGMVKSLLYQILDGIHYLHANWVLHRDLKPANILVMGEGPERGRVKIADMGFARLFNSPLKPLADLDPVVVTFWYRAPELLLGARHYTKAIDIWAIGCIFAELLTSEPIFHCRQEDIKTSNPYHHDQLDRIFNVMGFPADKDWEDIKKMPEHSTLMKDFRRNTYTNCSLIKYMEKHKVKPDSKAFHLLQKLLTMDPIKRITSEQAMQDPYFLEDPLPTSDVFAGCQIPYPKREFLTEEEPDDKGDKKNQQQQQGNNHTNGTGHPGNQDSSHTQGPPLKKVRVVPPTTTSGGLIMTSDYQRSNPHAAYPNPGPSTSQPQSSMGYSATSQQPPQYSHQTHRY
Sequence (P24863 whole entry partner): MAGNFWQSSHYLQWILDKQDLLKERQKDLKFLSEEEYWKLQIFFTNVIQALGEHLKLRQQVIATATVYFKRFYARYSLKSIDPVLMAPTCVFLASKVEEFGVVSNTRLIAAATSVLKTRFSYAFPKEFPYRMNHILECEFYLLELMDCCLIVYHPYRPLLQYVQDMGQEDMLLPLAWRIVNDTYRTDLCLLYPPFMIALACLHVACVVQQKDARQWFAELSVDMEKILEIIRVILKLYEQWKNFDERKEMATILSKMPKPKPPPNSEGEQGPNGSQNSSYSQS
pIC50: −log10 of the molar value.
Below, each entry is listed alongside its reported pIC50.

> print(dat)
                                   compound                              study.target        result
1  CC1CC(=O)N(c2ccc3cncc(-c4ccc(-c5cnn(C)c5)cc4)c3c2)C1 (stereo not shown)  CDK8 (CDK8/CycC) (Homo sapiens, UniProt P49336)  7.00 to 8.00
2  CNC(=O)c1ccc2cncc(-c3ccc(-c4cnn(C)c4)cc3C)c2n1  CDK8 (CDK8/CycC) (Homo sapiens, UniProt P49336)  7.00 to 8.00
3  Cn1cc(-c2ccc(-c3cncc4ccc(C(=O)N5CCC(F)(F)C5)cc34)cc2)cn1  CDK8 (CDK8/CycC) (Homo sapiens, UniProt P49336)  7.00 to 8.00
4  Cn1cc(-c2ccc(-c3cncc4ccc(NS(C)(=O)=O)nc34)cc2)cn1  CDK8 (CDK8/CycC) (Homo sapiens, UniProt P49336)        > 8.00
5  Cn1cc(-c2ccc(-c3cncc4ccc(-c5nnn(C)n5)cc34)cc2)cn1  CDK8 (CDK8/CycC) (Homo sapiens, UniProt P49336)  7.00 to 8.00
6  C[C@H](NC(=O)c1ccc2cncc(Br)c2n1)c1ccccc1  CDK8 (CDK8/CycC) (Homo sapiens, UniProt P49336)  6.30 to 7.00

Quickly give me recorded pIC50 for Cn1cc(-c2ccc(-c3cncc4ccc(N5CCCCC5=O)cc34)cc2)cn1
6.00 to 6.30

* * *

target: CDK8 (CDK8/CycC) (Homo sapiens, UniProt P49336); construct: purchased Invitrogen PV4402; test: FRET based Lanthascreen binding competition assay; conditions: 5 nM CDK8/CycC, 10 nM Alexa647-Tracer, 1% DMSO, 60 min at RT; read-out: IC50 CDK8 binding
pIC50: −log10 of the molar value.
measure: pIC50

Here's what some known entries look like.
> print(dat)
                                        smi                              study.target        result
1  COCC(=O)Nc1ccc2cncc(-c3ccc(-c4cnn(C)c4)cc3)c2c1  CDK8 (CDK8/CycC) (Homo sapiens, UniProt P49336)  7.00 to 8.00
2  CN1c2ccc(-c3cncc4ccc(C(=O)N5CCNCC5)nc34)cc2CS1(=O)=O  CDK8 (CDK8/CycC) (Homo sapiens, UniProt P49336)        > 8.00
3  COC1CN(C(=O)c2ccc3cncc(-c4ccc5c(c4)CC(=O)N5C)c3c2)C1  CDK8 (CDK8/CycC) (Homo sapiens, UniProt P49336)  7.00 to 8.00
4  Nc1ncc(-c2ccc3c(c2)CS(=O)(=O)N3)c2nc(C(=O)N3CCC(F)(F)C3)ccc12  CDK8 (CDK8/CycC) (Homo sapiens, UniProt P49336)  7.00 to 8.00
5  COC1CN(C(=O)c2ccc3cncc(-c4ccc5c(c4)CCC(=O)N5C)c3c2)C1  CDK8 (CDK8/CycC) (Homo sapiens, UniProt P49336)  7.00 to 8.00

Quickly give me recorded pIC50 for COc1ccc(CNC(=O)c2ccc3cncc(-c4ccc(-c5cnn(C)c5)cc4)c3n2)cc1
7.00 to 8.00

Quickly give me recorded pIC50 for COC1(C)CN(C(=O)c2ccc3cncc(-c4ccc(-c5cnn(C)c5)cc4)c3n2)C1
> 8.00

Quickly give me recorded pIC50 for CN1c2ccc(-c3cnc(N)c4ccc(CO)nc34)cc2CS1(=O)=O
6.30 to 7.00

Quickly give me recorded pIC50 for Cc1cc(C(N)=O)nc2c(-c3ccc(-c4cnn(C)c4)cc3)cncc12
6.30 to 7.00

Quickly give me recorded pIC50 for CC(C)(O)Cn1cc(-c2ccc(-c3cncc4ccc(C(=O)N5CC(F)(F)C5)cc34)cc2)cn1
7.00 to 8.00

Quickly give me recorded pIC50 for CN1c2ccc(-c3cncc4ccc(CO)nc34)cc2CS1(=O)=O
7.00 to 8.00

Quickly give me recorded pIC50 for O=C(c1ccc2cncc(Br)c2n1)N1CCC[C@H]1c1ccc(F)cc1
7.00 to 8.00

Quickly give me recorded pIC50 for O=C1Cc2ccc(-c3cncc4ccc(C(=O)N5CCC5)cc34)cc2N1
> 8.00

Quickly give me recorded pIC50 for COC1CN(C(=O)c2ccc3cncc(-c4ccc5c(c4)N(C)C(=O)C5)c3c2)C1
> 8.00

Quickly give me recorded pIC50 for CC(C)S(=O)(=O)Nc1ccc2cncc(-c3ccc(-c4cnn(C)c4)cc3)c2c1
> 8.00

Quickly give me recorded pIC50 for CC(=O)NC(=O)c1ccc2cncc(-c3ccc(-c4cnn(C)c4)cc3)c2n1
> 8.00

Quickly give me recorded pIC50 for COC1CN(C(=O)c2ccc3cncc(-c4ccc5c(cnn5C)c4)c3n2)C1
> 8.00

Quickly give me recorded pIC50 for Cn1cc(-c2ccc(-c3cncc4ccc(S)nc34)cc2)cn1
7.00 to 8.00

* * *

target: CDK8 (CDK8/CycC) (Homo sapiens, UniProt P49336); construct: purchased Invitrogen PV4402; assay: FRET based Lanthascreen binding competition assay; settings: 5 nM CDK8/CycC, 10 nM Alexa647-Tracer, 1% DMSO, 60 min at RT; read-out: IC50 CDK8 binding
Below, each entry is listed alongside its reported IC50.

Here's what some known entries look like.
> print(dat)
                                        smi         result
1  COCCNc1ccc2cncc(-c3ccc(-c4cnn(C)c4)cc3)c2c1        < 10 nM
2  Cn1cc(-c2ccc(-c3cncc4ccc(C(=O)N5CC(C)(F)C5)cc34)cc2)cn1   10 to 100 nM
3  Cn1cc(-c2ccc(-c3cncc4ccc(C(=O)N5CCCC(F)(F)C5)nc34)cc2)cn1   10 to 100 nM
4  Cn1cc(-c2ccc(-c3cncc4ccc(C(=O)N5CCC[C@H]5c5ccc(Cl)cc5)nc34)cc2)cn1  101 to 500 nM
5  O=C(c1ccc2cnccc2c1)N1CCC[C@H]1c1ccc(Cl)cc1   10 to 100 nM
6  Cn1cc(-c2ccc(-c3cncc4ccc(N5C(=O)CCC5=O)cc34)cc2)cn1  101 to 500 nM

Quickly give me recorded IC50 for C[C@@H](NC(=O)c1ccc2cncc(-c3ccc(-c4cnn(C)c4)cc3)c2n1)c1ccccc1
< 10 nM

Quickly give me recorded IC50 for COC1CN(C(=O)c2ccc3cncc(-c4ccc(-c5cc(C(F)(F)F)nn5C)cc4)c3n2)C1
101 to 500 nM

Quickly give me recorded IC50 for COC1CN(C(=O)c2ccc3c(N)ncc(-c4ccc5c(c4)N(C)C(=O)C5)c3c2)C1
10 to 100 nM

Quickly give me recorded IC50 for CN1c2ccc(-c3cncc4ccc(N5CCCC5=O)cc34)cc2CS1(=O)=O
10 to 100 nM

Values from patent US20160016951A1
